- Tested on: P388
- assayText: In vitro cytotoxicity against murine P388 cell lines
- Format: functional, cell-based
- conditionDetails: Mus musculus
measureName: pIC50
Just so you know, pIC50 here is -log10 of the concentration in molar units; reply with that number alone.

Reference set (4 entries):
- compound: "CC(=O)O[C@@]12CO[C@@H]1C[C@H](O)[C@@]1(C)C(=O)[C@H](O)C3=C(C)[C@@H](OC(=O)[C@H](O)[C@H](CC(C)C)NC(=O)OC(C)(C)C)C[C@@](O)([C@@H](OC(=O)c4ccccc4)C12)C3(C)C (stereo not given in full)"
  measureName: "pIC50"
  result: 7.91
- compound: "CC(=O)O[C@@]12CO[C@@H]1C[C@H](O)[C@@]1(C)C(=O)[C@H](O)C3=C(C)[C@@H](OC(=O)[C@H](O)[C@H](C=C(C)C)NC(=O)OC(C)(C)C)C[C@@](O)([C@@H](OC(=O)c4ccccc4)C12)C3(C)C (stereo not given in full)"
  measureName: "pIC50"
  result: 7.89
- compound: "CC(=O)O[C@@]12CO[C@@H]1C[C@H](O)[C@@]1(C)C(=O)[C@H](O)C3=C(C)[C@@H](OC(=O)[C@H](O)[C@H](/C=C/c4ccccc4)NC(=O)OC(C)(C)C)C[C@@](O)([C@@H](OC(=O)c4ccccc4)C12)C3(C)C (stereo not given in full)"
  measureName: "pIC50"
  result: 6.58
- compound: "CC(=O)O[C@@]12CO[C@@H]1C[C@H](O)[C@@]1(C)C(=O)[C@H](O)C3=C(C)[C@@H](OC(=O)[C@H](O)[C@H](CC(C)(C)C)NC(=O)OC(C)(C)C)C[C@@](O)([C@@H](OC(=O)c4ccccc4)C12)C3(C)C (stereo not given in full)"
  measureName: "pIC50"
  result: 6.90

pIC50 lookup needed for CC(=O)O[C@@]12CO[C@@H]1C[C@H](O)[C@@]1(C)C(=O)[C@H](O)C3=C(C)[C@@H](OC(=O)[C@H](O)[C@@H](NC(=O)OC(C)(C)C)c4ccccc4)C[C@@](O)([C@@H](OC(=O)c4ccccc4)[C@H]21)C3(C)C.O.O.O [DOCETAXEL] , thanks. 8.00
